assay: AUC (0 to 24 hrs) in mouse at 120 mg/kg, po; type: ADME, organism-based; parameters: time < 24 hr, dose 120 mg/kg, route oral; settings: plasma
recorded-endpoint: AUC(0-t) at 24 h (µM·h)
Please respond with the number in µM·h and leave the unit unwritten.

Incoming: Returns the measured AUC(0-t) at 24 h for the input molecule. Input: Cc1c(NC(=O)OC[C@@H]2COCCN2)cn2ncnc(Nc3ccc4c(cnn4Cc4cccc(F)c4)c3)c12 [AC-480]
Outgoing: 147

* * *

target: UniProt P00533; experiment: Inhibition of human recombinant HER1 expressed in Sf9 cells by liquid scintillation counting
Sequence (P00533 whole entry): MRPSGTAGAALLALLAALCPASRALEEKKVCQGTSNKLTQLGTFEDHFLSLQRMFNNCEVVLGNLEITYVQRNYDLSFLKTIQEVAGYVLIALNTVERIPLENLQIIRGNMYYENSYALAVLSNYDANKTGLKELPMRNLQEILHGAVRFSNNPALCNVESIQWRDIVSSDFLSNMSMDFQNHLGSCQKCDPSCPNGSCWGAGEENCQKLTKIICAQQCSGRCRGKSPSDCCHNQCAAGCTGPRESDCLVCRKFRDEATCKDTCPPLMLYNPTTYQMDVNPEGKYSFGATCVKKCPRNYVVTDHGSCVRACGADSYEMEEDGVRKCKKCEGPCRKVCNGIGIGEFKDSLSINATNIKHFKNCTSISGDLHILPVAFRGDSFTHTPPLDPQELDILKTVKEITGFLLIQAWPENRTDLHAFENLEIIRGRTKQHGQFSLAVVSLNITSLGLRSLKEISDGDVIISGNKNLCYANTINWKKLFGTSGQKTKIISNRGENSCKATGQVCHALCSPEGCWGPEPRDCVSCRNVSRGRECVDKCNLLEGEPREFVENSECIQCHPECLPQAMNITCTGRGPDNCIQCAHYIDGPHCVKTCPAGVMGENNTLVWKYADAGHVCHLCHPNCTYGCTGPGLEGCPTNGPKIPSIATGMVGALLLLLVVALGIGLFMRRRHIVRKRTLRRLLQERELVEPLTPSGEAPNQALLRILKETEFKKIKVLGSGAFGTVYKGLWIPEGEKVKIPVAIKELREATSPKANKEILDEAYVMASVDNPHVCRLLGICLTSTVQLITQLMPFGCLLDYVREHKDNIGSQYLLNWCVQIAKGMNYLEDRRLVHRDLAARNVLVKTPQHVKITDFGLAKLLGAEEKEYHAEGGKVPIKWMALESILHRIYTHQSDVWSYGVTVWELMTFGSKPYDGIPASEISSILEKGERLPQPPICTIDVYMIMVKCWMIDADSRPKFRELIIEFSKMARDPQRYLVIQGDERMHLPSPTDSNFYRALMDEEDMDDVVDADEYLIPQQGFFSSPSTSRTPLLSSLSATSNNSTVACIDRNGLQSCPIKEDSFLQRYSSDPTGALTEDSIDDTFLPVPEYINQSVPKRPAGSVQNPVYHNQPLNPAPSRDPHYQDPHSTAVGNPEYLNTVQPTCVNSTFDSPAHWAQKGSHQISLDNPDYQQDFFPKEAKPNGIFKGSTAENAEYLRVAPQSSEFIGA
recorded-endpoint: pIC50
# reply with the number alone; pIC50 is -log10 of concentration in mol/L

>>> quantitative_result("CCC1=C2C(Nc3ccc4c(cnn4Cc4ccccc4)c3)=NC=NC2N=C1NC(=O)OCC1CCCNC1 (configuration not stated)")
7.42

Incoming: Query the reported pIC50 for UniProt P00533; item: CCC1=C2C(Nc3ccc4c(cnn4Cc4ccccc4)c3)=NC=NC2N=C1NC(=O)OCCN1CCNCC1 (configuration not stated)
Outgoing: 7.68

Incoming: Query the reported pIC50 for UniProt P00533; item: CCC1=C2C(Nc3ccc4c(cnn4Cc4ccccc4)c3)=NC=NC2N=C1NC(=O)OCCN1CCOCC1 (configuration not stated)
Outgoing: 6.95

Incoming: Query the reported pIC50 for UniProt P00533; item: CCc1c(NC(=O)OC[C@@H]2COCCN2)cn2ncnc(Nc3ccc4c(cnn4Cc4ccccc4)c3)c12
Outgoing: 7.48

* * *

experiment: Volume of distribution at steady state in dog at 1.5 mg/kg, iv; type: ADME, organism-based, Canis lupus familiaris; set-up: dose 1.5 mg/kg, route intravenous; details: in vivo, read-out: Vdss
recorded-endpoint: Vd (L/kg)
Please respond with the number in L/kg and leave the unit unwritten.

Incoming: Returns the measured Vd for the input molecule. Input: Cc1c(NC(=O)OC[C@@H]2COCCN2)cn2ncnc(Nc3ccc4c(cnn4Cc4cccc(F)c4)c3)c12
Outgoing: 10.1

* * *

test: AUC (0 to 4 hrs) in BALB/c mouse at 50 mg/kg, po; format: ADME, organism-based; set-up: time < 4 hr, dose 50 mg/kg, route oral; conditions: plasma
Rule: measured AUC(0-t) at 4 h below 7 µM·h gets Criterion met; anything equal to or greater than 7 µM·h gets Criterion not met.

Study these solved cases before continuing.
>>> class_label("CCc1c(NC(=O)OC[C@@H]2COCCN2)cn2ncnc(Nc3ccc4c(cnn4Cc4ccccc4)c3)c12")
"Criterion not met"
>>> class_label("CCC1=C2C(Nc3ccc4c(cnn4Cc4ccccc4)c3)=NC=NC2N=C1NC(=O)OCCC1CCNCC1 (configuration not stated)")
"Criterion met"
>>> class_label("CCC1=C2C(Nc3ccc4c(cnn4Cc4ccccc4)c3)=NC=NC2N=C1NC(=O)OCCN1CCOCC1 (configuration not stated)")
"Criterion not met"
>>> class_label("CCC1=C2C(Nc3ccc4c(cnn4Cc4ccccc4)c3)=NC=NC2N=C1NC(=O)OCCN1CCNCC1 (configuration not stated)")
"Criterion met"
>>> class_label("CCC1=C2C(Nc3ccc4c(cnn4Cc4ccccc4)c3)=NC=NC2N=C1NC(=O)O[C@H]1CC[C@@](C)(N)CC1 (some centres not stated)")
"Criterion met"
>>> class_label("CCC1=C2C(Nc3ccc4c(cnn4Cc4ccccc4)c3)=NC=NC2N=C1NC(=O)OCCN1CCCCC1 (configuration not stated)")
"Criterion met"

Incoming: Does CCC1=C2C(Nc3ccc4c(cnn4Cc4ccccc4)c3)=NC=NC2N=C1NC(=O)OCC1CCNCC1 (configuration not stated) have AUC(0-t) at 4 h strictly under 7 µM·h?
Outgoing: Criterion met

Incoming: Does CCC1=C2C(Nc3ccc4c(cnn4Cc4ccccc4)c3)=NC=NC2N=C1NC(=O)OCCn1ccnc1 (configuration not stated) have AUC(0-t) at 4 h strictly under 7 µM·h?
Outgoing: Criterion not met

Incoming: Does CCC1=C2C(Nc3ccc4c(cnn4Cc4cccc(F)c4)c3)=NC=NC2N=C1NC(=O)OC[C@@H]1COCCN1 (some centres not stated) have AUC(0-t) at 4 h strictly under 7 µM·h?
Outgoing: Criterion not met

Incoming: Does Cc1c(NC(=O)OC[C@@H]2COCCN2)cn2ncnc(Nc3ccc4c(cnn4Cc4cccc(F)c4)c3)c12 [AC-480] have AUC(0-t) at 4 h strictly under 7 µM·h?
Outgoing: Criterion not met

Incoming: Does CCC1=C2C(Nc3ccc4c(cnn4Cc4ccccc4)c3)=NC=NC2N=C1NC(=O)OCC1CCCNC1 (configuration not stated) have AUC(0-t) at 4 h strictly under 7 µM·h?
Outgoing: Criterion met

* * *

test system: Mus musculus; assay: Plasma concentration in BALB/c mouse at 50 mg/kg, po; type: ADME, organism-based; parameters: dose 50 mg/kg, route oral; conditions: in vivo
Rule: measured concentration below 1000 nM gets true; anything equal to or greater than 1000 nM gets false.

Study these solved cases before continuing.
>>> class_label("CCC1=C2C(Nc3ccc4c(cnn4Cc4ccccc4)c3)=NC=NC2N=C1NC(=O)OCCn1ccnc1 (stereo not given)")
"false"
>>> class_label("CCC1=C2C(Nc3ccc4c(cnn4Cc4cccc(F)c4)c3)=NC=NC2N=C1NC(=O)OC[C@@H]1COCCN1 (stereo not given in full)")
"false"
>>> class_label("CCC1=C2C(Nc3ccc4c(cnn4Cc4ccccc4)c3)=NC=NC2N=C1NC(=O)OCC1CCCNC1 (stereo not given)")
"false"
>>> class_label("CCC1=C2C(Nc3ccc4c(cnn4Cc4ccccc4)c3)=NC=NC2N=C1NC(=O)OCC1CCNCC1 (stereo not given)")
"true"

Field: next compound
Incoming: Does CCC1=C2C(Nc3ccc4c(cnn4Cc4ccccc4)c3)=NC=NC2N=C1NC(=O)OCCN1CCCCC1 (stereo not given) have concentration strictly under 1000 nM?
Outgoing: false

* * *

test: Oral bioavailability in cynomolgus monkey at 5 mg/kg; format: ADME, organism-based, Macaca fascicularis; conditions: in vivo
recorded-endpoint: bioavailability

Incoming: Returns the measured bioavailability for the input compound. Input: Cc1c(NC(=O)OC[C@@H]2COCCN2)cn2ncnc(Nc3ccc4c(cnn4Cc4cccc(F)c4)c3)c12 [AC-480]
Outgoing: 31%

* * *

test: Intrinsic permeability in human Caco-2 cells; assay type: ADME, cell-based; conditions: read-out: permeability
recorded-endpoint: Papp (×10⁻⁶ cm/s)
Please respond with the number in ×10⁻⁶ cm/s and leave the unit unwritten.

Incoming: Returns the measured Papp for the input compound. Input: Cc1c(NC(=O)OC[C@@H]2COCCN2)cn2ncnc(Nc3ccc4c(cnn4Cc4cccc(F)c4)c3)c12 [AC-480]
Outgoing: 21.4

* * *

assay: AUC (0 to 24 hrs) in cynomolgus monkey at 5 mg/kg, po; assay type: ADME, organism-based, Macaca fascicularis; design: time < 24 hr, dose 5 mg/kg, route oral; conditions: plasma
recorded-endpoint: AUC(0-t) at 24 h (µM·h)
Please respond with the number in µM·h and leave the unit unwritten.

Incoming: Returns the measured AUC(0-t) at 24 h for the input compound. Input: Cc1c(NC(=O)OC[C@@H]2COCCN2)cn2ncnc(Nc3ccc4c(cnn4Cc4cccc(F)c4)c3)c12 [AC-480]
Outgoing: 3.6

* * *

experiment: AUC (0 to 24 hrs) in rat at 10 mg/kg, po; format: ADME, organism-based; parameters: time < 24 hr, dose 10 mg/kg, route oral; settings: plasma
recorded-endpoint: AUC(0-t) at 24 h (µM·h)
Please respond with the number in µM·h and leave the unit unwritten.

Incoming: Returns the measured AUC(0-t) at 24 h for the input compound. Input: Cc1c(NC(=O)OC[C@@H]2COCCN2)cn2ncnc(Nc3ccc4c(cnn4Cc4cccc(F)c4)c3)c12 [AC-480]
Outgoing: 2.9

* * *

test: Mean residence time in mouse at 25 mg/kg, iv; format: ADME, organism-based; parameters: dose 25 mg/kg, route intravenous; details: in vivo
recorded-endpoint: MRT
Report field: quantity (unit follows the number).

Incoming: Returns the measured MRT for the input compound. Input: Cc1c(NC(=O)OC[C@@H]2COCCN2)cn2ncnc(Nc3ccc4c(cnn4Cc4cccc(F)c4)c3)c12
Outgoing: 3.7 h

* * *

test system: NCI-N87; assay: Antiproliferative activity against human NCI-N87 cells after 72 hrs by MTT assay; assay type: functional, cell-based; conditions: NCI-N87, 72 h
recorded-endpoint: IC50 (nM)
Please respond with the number in nM and leave the unit unwritten.

>>> quantitative_result("CCC1=C2C(Nc3ccc4c(cnn4Cc4ccccc4)c3)=NC=NC2N=C1NC(=O)OCC1CCCCN1 (stereo not drawn)")
430
>>> quantitative_result("CCC1=C2C(Nc3ccc4c(cnn4Cc4ccccc4)c3)=NC=NC2N=C1NC(=O)OCCC1CCNCC1 (stereo not drawn)")
210
>>> quantitative_result("CCC1=C2C(Nc3ccc4c(cnn4Cc4ccccc4)c3)=NC=NC2N=C1NC(=O)O[C@H]1CC[C@@](C)(N)CC1 (stereo partly drawn)")
170

Next up:
Incoming: Returns the measured IC50 for the input compound. Input: CCC1=C2C(Nc3ccc4c(cnn4Cc4cccc(F)c4)c3)=NC=NC2N=C1NC(=O)OC[C@@H]1COCCN1 (stereo partly drawn)
Outgoing: 340
